- ASSAY: Quantitative highthroughput screen to assess conditional lethalithy of SEM cells grown in RPMI1640 with unreated serum (RPMI+s) (AID 1963883); also: nearly all actives have a fitted effect of over 35% in size; also: potency is read from the fitted curve at half-maximal effect
- CONDITION_LABEL: SEM B-ALL cells, CellTiter-Glo viability, 48 h; series mostly up to 45.8 µM
Inconclusive results are not listed. Calls of active or inactive are those of the source. Calls follow the shape of the dose curve; as a rule, active = well fitted cell-killing curve with a large enough effect; inconclusive = small, poorly fitted or top-dose-only effect, or effect the other way; inactive = no such curve, though single readings can be large or run the other way.
MEASURED_QUANTITY: Potency

Consider the following illustrative entries.
CCN1CCN(c2ccc(Nc3cc(N(C)C(=O)Nc4c(Cl)c(OC)cc(OC)c4Cl)ncn3)cc2)CC1
2090 nM (active)
Clc1ccc(C(Cn2ccnc2)OCc2c(Cl)cccc2Cl)c(Cl)c1 (stereo not drawn)
inactive
CC(C)c1cnn2c(NCc3ccccc3)cc(N[C@@H](CO)[C@H](O)CO)nc12
590 nM (active)
C[C@@H]1[C@H](O)[C@@H](C)C=CC=CC=CC=CC=CC=CC=C[C@H](O[C@@H]2O[C@H](C)[C@H](O)[C@H](N)[C@@H]2O)C[C@@H]2O[C@](O)(C[C@@H](O)C[C@@H](O)[C@H](O)CC[C@@H](O)C[C@@H](O)CC(=O)O[C@H]1C)C[C@H](O)[C@@H]2C(=O)O
inactive
NCCCC(N)(C(=O)O)C(F)F (stereo not drawn)
inactive

Exercise: Identify measured Potency corresponding to COc1ccc2cc([C@H](C)C(=O)O)ccc2c1
Solution: 9350 nM (active)

Exercise: Identify measured Potency corresponding to O=C(NC1CCOCC1)c1ccc(-c2cc(-c3cn[nH]c3-c3ccccn3)ccn2)cc1
Solution: inactive

Exercise: Identify measured Potency corresponding to CCC1=C(C)CN(C(=O)NCCc2ccc(S(=O)(=O)NC(=O)NC3CCC(C)CC3)cc2)C1=O (stereo not drawn)
Solution: inactive

* * *

- ASSAY: Viability qHTS for spleen associated tyrosine kinase inhibitor (SYKi) naive MV4-11 cells (AID 1963823); also: nearly all actives have a fitted effect of over 40% in size
- CONDITION_LABEL: MV4-11 AML viability, CellTiter-Glo luminescence, 72 h; series mostly up to 45 µM
Inconclusive results are not listed. Activity calls are given as the source filed them. The call rests on the fitted dose curve; in most records, active means well fitted cell-killing curve with a large enough effect; inconclusive means small, poorly fitted or top-dose-only effect, or effect the other way; inactive means no such curve, though single readings can be large or run the other way.
A correct response names exactly one class from active, inactive

Below are worked cases with known answers.
O=C(O[C@H]1[C@@H]2C[C@@H]3OC[C@@](O)([C@H]2[C@H](O[C@@H]2O[C@H](CO)[C@@H](O)[C@H](O)[C@H]2O)O3)[C@@H]1O)c1ccccc1
inactive
CC1=C(C)C(=O)OC(C(C)(O)C2CCC3C4CC=C5CC(OC6OC(COC7OC(CO)C(O)C(O)C7O)C(O)C(O)C6O)CC(O)C5(C)C4CCC32C)C1 (stereo not drawn)
inactive
O=C(O)c1ccc(S(=O)(=O)N(Cl)Cl)cc1
inactive
O=C1NC(=O)/C(=C\c2ccc(-c3ccc(F)cc3)o2)S1
active
Oc1cccc(Nc2ccnc3[nH]c4ccccc4c23)c1
active
CC(N=C(NC#N)Nc1ccncc1)C(C)(C)C (stereo not drawn)
inactive

Exercise: Can you look up the reported call for Cc1nc2c(-c3cnc(N)nc3)nc(N3CCOCC3)nc2n1C(C)C for me?
Solution: active

Exercise: Can you look up the reported call for O=C(NCC1CCN(Cc2cccc(Cl)c2)CC1)[C@@H]1CCCN(c2ncnc3c2nc2n3CCCC2)C1 for me?
Solution: active

Exercise: Can you look up the reported call for CSc1ccc(C(=O)/C=C/c2cc(C)c(OC(C)(C)C(=O)O)c(C)c2)cc1 for me?
Solution: active

Exercise: Can you look up the reported call for CC[C@H](C)[C@H](N)C(=O)O for me?
Solution: inactive

Exercise: Can you look up the reported call for O=C(O)Cc1cccc(OCCCN(Cc2cccc(C(F)(F)F)c2Cl)CC(c2ccccc2)c2ccccc2)c1 for me?
Solution: active

Exercise: Can you look up the reported call for C[C@H]1NCc2cc(-c3ccc4c(=O)c(C(=O)O)cn(C5CC5)c4c3OC(F)F)ccc21 for me?
Solution: inactive

Exercise: Can you look up the reported call for CO/N=C(/C(=O)N[C@@H]1C(=O)N2C(C(=O)O)=C(CSC(=O)c3ccco3)CS[C@H]12)c1csc(N)n1 for me?
Solution: inactive

Exercise: Can you look up the reported call for COc1ccc(CC2NCCc3c2[nH]c2ccc(C)cc32)cc1OC (stereo not drawn) for me?
Solution: active

Exercise: Can you look up the reported call for COc1nc(C)cnc1NS(=O)(=O)c1cccnc1-c1ccc(-c2nnco2)cc1 for me?
Solution: inactive

Exercise: Can you look up the reported call for CC(C)n1nc(-c2ccc(NC(=O)Nc3cccc(C(F)(F)F)c3)cc2)c2c(N)ncnc21 for me?
Solution: inactive

Exercise: Can you look up the reported call for CC(=O)O[C@H]1[C@H](C)[C@@H](O)[C@H]2[C@@H]1C=C(C(=O)O)[C@H]1C[C@@H]3[C@H]([C@H]21)[C@H]1C(=O)O[C@@H]2CC[C@@]3(C)O[C@]1(O)[C@@H]2C for me?
Solution: inactive

Exercise: Can you look up the reported call for Cc1ccc(S(=O)(=O)NC(=O)NN2CC3CCCC3C2)cc1 (stereo not drawn) for me?
Solution: inactive

Exercise: Can you look up the reported call for CC(=O)NC(Cc1ccccc1)C(=O)O (stereo not drawn) for me?
Solution: inactive

FYI, the data here is from PubChem BioAssay (NCATS).
